B1: mRNA-splicing (parent)
chain: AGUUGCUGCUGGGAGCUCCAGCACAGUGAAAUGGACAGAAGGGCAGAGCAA

# Variants of: B1
# testProtocol: exon inclusion enrichment index; higher = more inclusion; WT1 exon 5 minigene, HEK293
variants and their reported exon inclusion enrichment index
Just the number.

>  <variantLabel>
C6A U7A C9A U10A A31G

>  <exon inclusion enrichment index>
1.04

$$$$
>  <variantLabel>
G5C C6U G8C C9U U10C G21A

>  <exon inclusion enrichment index>
1.28

$$$$
>  <variantLabel>
G5U G8U C9U C16U U17G

>  <exon inclusion enrichment index>
0.0101

$$$$
>  <variantLabel>
G5C C6G U7C U10C C24A

>  <exon inclusion enrichment index>
3.28

$$$$
>  <variantLabel>
G5C C6A U7C G8A U10A G13C A14C

>  <exon inclusion enrichment index>
0.145

$$$$
>  <variantLabel>
A37U G38C

>  <exon inclusion enrichment index>
0.0886

$$$$
>  <variantLabel>
C6A U7A C9A U10A A45G G46C

>  <exon inclusion enrichment index>
1.17

$$$$
>  <variantLabel>
C6A U7A C9A G11U

>  <exon inclusion enrichment index>
2.86

$$$$

// exon inclusion enrichment index value for G5A C6U U7A G8U C9A G46C : 0.0876

// exon inclusion enrichment index value for C36G A37G : 0.0334

// exon inclusion enrichment index value for G5U G8U C9U A35C C36U : 0.0048
